PROTOCOL_DETAILS: chemical genetic growth profiling, strain panel (AID 1159580);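 further: tested at 20 µM; growth read once vehicle control cultures reached saturation at 30 °C; 1 = growth at the plate median or of vehicle wells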
CONDITIONS_USED: S. cerevisiae deletion strains, growth OD, locus YHR027C, strain rpn1, stronger effect = lower value
The whole screen tested about 5,500 compounds, of which about 2,000 (36%) were called active. About 18% were inconclusive and are not listed. The list shows a part of the results.
Entries and their normalized growth

Nc1ncnc2c1ncn2C1O[C@H](COP(=O)(O)O)[C@@H](O)[C@H]1O (some centres undefined); 1 (inactive)

Now look at this one.
Would you mind telling me what normalized growth value was observed for Nc1ccc([As](=O)(O)O)cc1 ?
1 (inactive)

* * *

PROTOCOL_DETAILS: chemical genetic growth profiling, strain panel (AID 1159580)
CONDITIONS_USED: S. cerevisiae deletion strains, growth OD, locus YNL153C, strain GIM3, stronger effect = lower value
About 2,000 (36%) of roughly 5,500 compounds were called active. Another 18% or so got no clear call; they are omitted. Some of the results follow.
VALUE_KIND: normalized growth
Would you mind answering with just the numeric figure?

COc1cc2c(c(OC)c1OC)-c1ccc(OC)c(=O)cc1[C@@H](NC(C)=O)CC2; 1.02
NC(=O)c1ccccc1N1CCCCC1; 0.993
Cc1cccc(C)c1NC(=O)C[N+](C)(C)C; 1.01

Return reported normalized growth; argument: CCC(Cc1c(I)cc(I)c(N)c1I)C(=O)O (stereo unspecified)
1.01

What measured normalized growth goes with NC(N)=NC(N)=Nc1cc(C(F)(F)F)cc(C(F)(F)F)c1 ?
0.993

Give its normalized growth value. Item: Nc1nc2ncc(C(=O)O)nc2c(=O)[nH]1
1.01

* * *

PROTOCOL_DETAILS: chemical genetic growth profiling, strain panel (AID 1159580)
CONDITIONS_USED: S. cerevisiae deletion strains, growth OD, locus YOL012C, strain htz1
Hit rate of the full screen: of about 5,500 compounds, about 2,000 (36%) were called active. Not shown: some 18% with an inconclusive outcome. Cut-off read from the data, not from the text of the source: active = normalized growth mostly below about 0.91 (no sharp cut-off); inconclusive = no clear call, values can overlap the other calls; inactive = mostly above about 0.92. The list shows a part of the results.
Valid outcomes are listed here; reply with one: active, inactive

Identify the outcome logged in this assay for the compound shown: CN[C@H](CC(=O)O)C(=O)O
inactive

Give the logged outcome of this assay for the following compound: CCC[C@H]1CC2=C(C[C@@H](CC)CC3=C1C(=O)OC3=O)C(=O)OC2=O
inactive

What outcome does the record of this test show for CCC(Cc1c(I)cc(I)c(N)c1I)C(=O)O (stereo not given) ?
inactive

Lab log entry: Nc1nc2ncc(C(=O)O)nc2c(=O)[nH]1 — outcome as called in the assay?
inactive

Write down the call the test reported for this compound. Item: CC(=O)c1c(O)c(C)c(O)c2c1OC1=CC(=O)C(C(C)=O)C(=O)C12C (stereo not given)
inactive

For this compound, state the assay outcome: O=C(CCCCCCCCCCCCC1CCCC1)Nc1ccc(S(=O)(=O)c2ccc(NC(=O)CCCCCCCCCCCCC3CCCC3)cc2)cc1
inactive

Record request — test call for NCC(O)c1ccc(O)cc1 (stereo not given)
active

Tell me the recorded outcome of this test for O=C(O)c1ccccc1Nc1cccc(C(F)(F)F)c1 .
inactive

In this assay, the call recorded for COc1cc2c(c(OC)c1OC)-c1ccc(O)c(=O)cc1[C@@H](NC(C)=O)CC2 was what?
inactive

Given CC1(C)C(=O)C=CC2(C)C3CCC4(C)C(c5ccoc5)CC5OC54C3C(O)CC12 (stereo not given) , state the outcome it received in this test.
inactive

* * *

PROTOCOL_DETAILS: chemical genetic growth profiling, strain panel (AID 1159580)
CONDITIONS_USED: S. cerevisiae deletion strains, growth OD, locus YDR162C, strain NBP2, stronger effect = lower value
Screen size: about 5,500 compounds; about 2,000 (36%) were called active. About 18% were inconclusive and are not listed. Some of the results follow.
VALUE_KIND: normalized growth
The reply should be a number, written without any unit.

Reference set, count: 2
Nc1nc2c(ncn2C2C[C@H](O)[C@@H](CO)O2)c(=O)[nH]1 (stereo partly drawn); 1
CS(=O)(=O)CCCCN=C=S; 0.69

Let us move to another entry and its normalized growth.
Looking for the measured normalized growth of O=[N+]([O-])c1cc(O)c(O)c([N+](=O)[O-])c1 , can you help?
0.999

* * *

PROTOCOL_DETAILS: chemical genetic growth profiling, strain panel (AID 1159580)
CONDITIONS_USED: S. cerevisiae deletion strains, growth OD, locus YGR252W, strain gcn5
The whole screen tested about 5,500 compounds, of which about 2,000 (36%) were called active. About 18% were inconclusive and are not listed. No stated cut-off is given here; in the data, active means normalized growth mostly below about 0.91 (no sharp cut-off); inconclusive means no clear call, values can overlap the other calls; inactive means mostly above about 0.92. Some of the results follow.
// classify into Yes = active, No = inactive

// below: answered molecules
CC(=O)O[C@@H]1CC2C(C)(C)C=CC(=O)[C@]2(C)C2CC[C@@]3(C)[C@H](c4ccoc4)OC(=O)C4OC43[C@@]21C (stereo partly specified); No
CC(=O)Nc1ccc(S(=O)(=O)Nc2ccc([N+](=O)[O-])cc2)cc1; No
C1CNCCN1; No
CC(=O)c1c(O)c(C)c(O)c2c1OC1=CC(=O)C(C(C)=O)C(=O)C12C (stereo unspecified); No
Oc1ccc(Cl)c2cccnc12; Yes

Please look at the following molecule next.
State the result this test recorded for COc1cc(OC)c2c(=O)c(-c3ccccc3)c(C)oc2c1OC .
No

* * *

PROTOCOL_DETAILS: chemical genetic growth profiling, strain panel (AID 1159580);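 further: tested at 20 µM; growth read once vehicle control cultures reached saturation at 30 °C; 1 = growth at the plate median or of vehicle wells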
CONDITIONS_USED: S. cerevisiae deletion strains, growth OD, locus YOR265W, strain rbl2, stronger effect = lower value
The campaign covered roughly 5,500 compounds. About 2,000 (36%) were called active. About 18% were inconclusive and are not listed. The list shows a part of the results.
I'd appreciate it if you marked entries y when normalized growth is lower than 1 and n when it is not.

Dear reviewer, please state whether Cc1c(Nc2ncccc2C(=O)O)cccc1C(F)(F)F has normalized growth strictly beneath 1.
y

Here's an entry: CN[C@H](CC(=O)O)C(=O)O . Is its normalized growth below 1?
n

Record O[N+]1=CC=CCC1=S.On1ccccc1=S.[Zn] : is its normalized growth strictly below 1?
y

Does this compound meet the criterion normalized growth < 1? O=[N+]([O-])c1cc([As](=O)(O)O)ccc1O
y

Please determine if O=[N+]([O-])c1ccc(O)c([N+](=O)[O-])c1 is below 1 in terms of normalized growth.
y

Bench note: check whether O=C(O)c1ccccc1Nc1ccccc1 shows normalized growth below 1
y

In the record for CO[C@H]1/C=C/O[C@@]2(C)Oc3c(C)c(O)c4c(O)c(c(/C=N/N5CCN(C)CC5)c(O)c4c3C2=O)NC(=O)/C(C)=C\C=C\C(C)[C@H](O)[C@@H](C)[C@@H](O)[C@@H](C)[C@@H](OC(C)=O)[C@@H]1C (stereo not given in full) , is normalized growth less than 1?
n

Here's an entry: CC1(C)C(=O)C=C[C@@]2(C)C1=C(O)C(=O)[C@]1(C)C2CC[C@@]2(C)[C@H](c3ccoc3)C[C@H]3O[C@]321 (stereo not given in full) . Is its normalized growth below 1?
y

State whether 1 exceeds normalized growth recorded for CCOP(=S)(OCC)SCn1c(=O)oc2cc(Cl)ccc21 .
y

Hello, I'm reviewing records and need to know if normalized growth of C=C[C@@H](C1=CC(=O)C(OC)=C(OC)C1=O)c1ccccc1 is below 1. Could you check?
y

* * *

PROTOCOL_DETAILS: chemical genetic growth profiling, strain panel (AID 1159580);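 further: tested at 20 µM; growth read once vehicle control cultures reached saturation at 30 °C; 1 = growth at the plate median or of vehicle wells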
CONDITIONS_USED: S. cerevisiae deletion strains, growth OD, locus YDL185W, strain tfp1, stronger effect = lower value
In all, about 5,500 compounds went through this assay and about 2,000 (36%) were called active. About 18% were inconclusive and are not listed. The list shows a part of the results.
Reported normalized growth values for a set of compounds
The answer should be written as a number, with no unit following it.

c1ccc2c3c([nH]c2c1)CNCC3; 1.01
CC1(C)C(O)CC(O)C2(C)C1CC(O)C1(C)C2CCC2(C)C(c3ccoc3)CC3OC321 (stereo unspecified); 1.02
COC(=O)Oc1ccccc1C(=O)O; 1.01
C=C[C@@H](C1=CC(=O)C(OC)=C(OC)C1=O)c1ccccc1; 0.945

Let us move to another entry and its normalized growth.
For the compound shown here, CC1(C)C(=O)C=C[C@@]2(C)C1=C(O)C(=O)[C@]1(C)C2CC[C@@]2(C)[C@H](c3ccoc3)C[C@H]3O[C@]321 (stereo partly specified) , give the reported normalized growth.
0.955

* * *

PROTOCOL_DETAILS: chemical genetic growth profiling, strain panel (AID 1159580);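 further: tested at 20 µM; growth read once vehicle control cultures reached saturation at 30 °C; 1 = growth at the plate median or of vehicle wells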
CONDITIONS_USED: S. cerevisiae deletion strains, growth OD, locus YCL069W, strain vba3, stronger effect = lower value
In all, about 5,500 compounds went through this assay and about 2,000 (36%) were called active. About 18% were inconclusive and are not listed. The list shows a part of the results.
VALUE_KIND: normalized growth
Please state the value as a number alone, without comment.

Completed entries (count: 3):
CC(=O)NCCCCCC(=O)O; 0.979
CC(C)=CCC[C@](C)(O)C1CC=C(C)CC1 (some centres undefined); 0.987
CCCC(C)C1(CC)C(=O)NC(=O)NC1=O (centres undefined); 0.998

--- query ---
Recorded normalized growth for Nc1ncn([C@@H]2O[C@H](CO)[C@@H](O)[C@H]2O)c(=O)n1 , please?
0.979
